B1: CHMP4C (parent)
chain: SSKSRAAPSPQEALVRLRETEEML

- Variants of: B1
- Protocol Details: protein stability index of a GFP-peptide fusion (GPS, HEK-293T) (PSI 1-6); higher = more stable;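 further: lentivirally expressed fusions sorted by FACS into six bins by GFP to DsRed ratio, PSI derived from sequencing read proportions per bin multiplied by bin number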
- Test Settings: c terminus: a fixed tail appended
Where protein stability index equals or exceeds 3, the correct label is y; where it does not, the label is n.

1) SSKSRAAPSHQEALVRLRETEEML    y
2) SSKSRAAPSPQEALVRLREQEEML    y
3) SSKSRAAPSPQEAKVRLRETEEML    y
4) SSKSRAAPSPQEALVRLRETEEMD    y
5) SSKSDAAPSPQEALVRLRETEEML    n

Then there is this variant:
Can SSKSRAAPSPQEALVRLREWEEML be said to have protein stability index at or above 3?
y
